System: HT29 colon
test_name: NCI-60 one-dose screen, 48 h
setup_conditions: 10 µM
The panel holds about 83,000 compounds, 20% with a hit somewhere; the sample as a whole holds those more often. Active and inactive are the calls of the source. How the source made its calls: active means growth percent below 10; inactive means the rest.
Possible outcomes: class 1 for active, class 0 for inactive

{"compound": "O=C(CSc1nnc(-c2c[nH]c3ccccc23)n1-c1ccccc1)Nc1ccc(C(=O)/C=C/c2cccc([N+](=O)[O-])c2)cc1", "study_target": "HT29 colon", "assigned_class": "class 0"}
{"compound": "O=C(CS(=O)(=O)c1oc(-c2ccc(Cl)cc2)nc1S(=O)(=O)c1ccc(Cl)cc1)N1CCOCC1", "study_target": "HT29 colon", "assigned_class": "class 1"}
{"compound": "COc1cccc(C(N)=Nc2ccc(OCCCCCCn3cncn3)cc2)c1", "study_target": "HT29 colon", "assigned_class": "class 1"}
{"compound": "COc1ccc2[nH]c(O)c(N=NC(=O)c3cc(-c4ccc(C)cc4)nc4ccccc34)c2c1", "study_target": "HT29 colon", "assigned_class": "class 0"}
{"compound": "CN1C(=O)N(C)C2SC(N/N=C/c3ccc(F)cc3)=NC21 (stereo not drawn)", "study_target": "HT29 colon", "assigned_class": "class 0"}
{"compound": "Cc1ccc(/C=C/C(=O)c2ccc(NC(=O)CSc3nnc(-c4c[nH]c5ccccc45)n3-c3ccccc3)cc2)cc1", "study_target": "HT29 colon", "assigned_class": "class 0"}
{"compound": "COC1=C[C@]23CCC(=O)N2CCc2cc4c(cc2[C@@H]3[C@@H]1OC(=O)CCCC(C)C)OCO4", "study_target": "HT29 colon", "assigned_class": "class 0"}
{"compound": "CCCCCCCCCCCCCCCCCCCC(=O)NCCc1c[nH]c2ccc(OC(=O)NOCCOCCOCCOCCOCCOCCOCCOCCOCCOCCOCCOCCOCCOCCOCCOCCOCCOCCOCCOCCOCCOCCOC)cc12", "study_target": "HT29 colon", "assigned_class": "class 1"}

---

Tested on: RPMI-8226 leukemia
test_name: NCI-60 one-dose screen, 48 h (100 = growth as untreated, 0 = no growth, -100 = all killed)
setup_conditions: 10 µM
Compounds without any hit were thinned out: in the full panel of roughly 83,000, 20% have a hit.
Rule for this label: class 1 means growth is less than 30%; class 0 means growth is at least 30%.

{"smiles_representation": "COC(=O)c1c(C(=O)OC)c2n(c1C)[C@@H]([C@@H](C)[C@H]1CC[C@H]3[C@@H]4CCC5=CC(=O)CC[C@]5(C)[C@H]4CC[C@]13C)SC2", "study_target": "RPMI-8226 leukemia", "assigned_class": "class 1"}
{"smiles_representation": "CN1CCN(c2ccc(Nc3nc(N4CCN(S(=O)(=O)c5ccc(F)cc5)CC4)c4sccc4n3)cc2)CC1", "study_target": "RPMI-8226 leukemia", "assigned_class": "class 1"}
{"smiles_representation": "O=C(c1ccc([N+](=O)[O-])c([N+](=O)[O-])c1O)n1[nH]c(=O)c2ccccc2c1=O", "study_target": "RPMI-8226 leukemia", "assigned_class": "class 1"}
{"smiles_representation": "CC(C)CCSc1nc(NC2CC2)c(C#N)c(-c2ccc(C(C)C)cc2)n1", "study_target": "RPMI-8226 leukemia", "assigned_class": "class 0"}
{"smiles_representation": "Cc1ccc2nc(COc3ccc(C(=O)NNC(=S)NC(=O)c4ccccc4)cc3)[nH]c2c1", "study_target": "RPMI-8226 leukemia", "assigned_class": "class 0"}
{"smiles_representation": "Nc1cccnc1/C=N/NC(=S)NCCNC(=O)c1ccc(-n2nc(-c3ccccc3O)nc2-c2ccccc2O)cc1", "study_target": "RPMI-8226 leukemia", "assigned_class": "class 1"}
{"smiles_representation": "CC(=C(c1ccc(OCCCN(C)C)cc1)c1ccc(OCCCN(C)C)cc1)c1ccccc1", "study_target": "RPMI-8226 leukemia", "assigned_class": "class 1"}

---

System: SNB-75 CNS
test_name: NCI-60 one-dose screen, 48 h (100 = growth as untreated, 0 = no growth, -100 = all killed)
setup_conditions: 10 µM
Compounds without any hit were thinned out: in the full panel of roughly 83,000, 20% have a hit.

{"smiles_representation": "CN1CCN(Cc2ccc(C(=O)Nc3cccc(Nc4ccc5c(O)cccc5n4)c3)cc2C(F)(F)F)CC1", "study_target": "SNB-75 CNS", "unit_abbreviation": "%", "growth": 33.1}
{"smiles_representation": "C=C1CC[C@H](C(=C)C)[C@H]2C=C(C)C(=O)C3=C(C(=O)[C@@](C)(O)C3)[C@H]12", "study_target": "SNB-75 CNS", "unit_abbreviation": "%", "growth": -71}
{"smiles_representation": "C=C(C)[C@@H]1CC[C@]2(C(=O)OC)CC[C@]3(C)[C@H](CC[C@@H]4[C@@]5(C)CC[C@H](N)C(C)(C)[C@@H]5CC[C@]43C)[C@@H]12", "study_target": "SNB-75 CNS", "unit_abbreviation": "%", "growth": -91.5}
{"smiles_representation": "COc1ccc2nc(Cl)c(-c3cc(-c4ccccc4)nc(=O)[nH]3)cc2c1", "study_target": "SNB-75 CNS", "unit_abbreviation": "%", "growth": 70.1}

---

System: CAKI-1 renal
test_name: NCI-60 one-dose screen, 48 h (100 = growth as untreated, 0 = no growth, -100 = all killed)
setup_conditions: 10 µM
Compounds without any hit were thinned out: in the full panel of roughly 83,000, 20% have a hit.
Rule: growth under 40% gives Criterion not met, otherwise Criterion met.

{"compound": "CS(=O)(=O)Nc1ccc(-c2ccc3c(c2)ncn3-c2ccc(NC(=O)Nc3ccc(Br)cc3)cc2)cc1", "study_target": "CAKI-1 renal", "assigned_class": "Criterion not met"}
{"compound": "Cc1ccc(-c2nc(Nc3ccc(S(N)(=O)=O)cc3)c3ccccc3n2)cc1", "study_target": "CAKI-1 renal", "assigned_class": "Criterion not met"}
{"compound": "N#Cc1ccc(-c2nn(-c3ccc(C(=O)O)cc3)cc2CNc2cccc(Br)c2)cc1", "study_target": "CAKI-1 renal", "assigned_class": "Criterion met"}
{"compound": "O=C1Nc2ccc(F)cc2/C1=C/c1cccc(OCc2ccccn2)c1", "study_target": "CAKI-1 renal", "assigned_class": "Criterion not met"}
{"compound": "CC1CC(c2ccc(N(C)C)cc2)=NN1c1nc(O)c(C2=c3cc(Br)ccc3=NC2=O)s1 (centres undefined)", "study_target": "CAKI-1 renal", "assigned_class": "Criterion met"}
{"compound": "O=C(c1ccc([N+](=O)[O-])c([N+](=O)[O-])c1O)n1[nH]c(=O)c2ccccc2c1=O", "study_target": "CAKI-1 renal", "assigned_class": "Criterion met"}
{"compound": "O=C(COc1ccc(NC(=O)Nc2ccc(Cl)cc2)cc1)N=Nc1c(O)[nH]c2ccc([N+](=O)[O-])cc12", "study_target": "CAKI-1 renal", "assigned_class": "Criterion met"}
{"compound": "O=C(Nc1ccc(OCC(=O)c2ccccc2)cc1)Nc1ccc(Cl)c(C(F)(F)F)c1", "study_target": "CAKI-1 renal", "assigned_class": "Criterion not met"}
{"compound": "COc1ccccc1NCc1ccc(CO)n1-c1ccc(C)cc1", "study_target": "CAKI-1 renal", "assigned_class": "Criterion met"}

---

Test system: A498 renal
test_name: NCI-60 one-dose screen, 48 h (100 = growth as untreated, 0 = no growth, -100 = all killed)
setup_conditions: 10 µM
Protocol: Growth inhibition of the A498 human tumor cell line is measured as a screen for anti-cancer activity. Cells are grown in 96 well plates and exposed to the test compound for 48 hours. Compounds are tested at a single concentration, which is 10^-5 M for most compounds. The reported endpoint is percent growth (GI% or GIPRCNT), where numbers from 0 - 100% represent growth inhibition, and numbers from -100% - 0 represent cell death. For example, a value of 40 represents 60% growth inhibition. […]
This is part of a sample that, as a whole, favours compounds with a hit. Of some 83,000 tested, about 20% had one in any assay.
Rule: growth under 80% gives NOT MET, otherwise MET.

{"smiles_representation": "COc1cccc2nc(Nc3ccc(F)c(NC(=O)c4ccc(CN5CCN(C)CC5)c(C(F)(F)F)c4)c3)ccc12", "assigned_class": "NOT MET"}
{"smiles_representation": "Cc1ccc(/C=C/C(=O)c2ccc(NC(=O)CSc3nnc(-c4c[nH]c5ccccc45)n3-c3ccccc3)cc2)c(C)c1", "assigned_class": "MET"}
{"smiles_representation": "COc1ccc2[nH]c(=O)c(CSc3nccc(-c4ccc(Cl)cc4)n3)cc2c1", "assigned_class": "NOT MET"}
{"smiles_representation": "COc1cc2c(cc1OC)/C(=C\\c1sc(Nc3ccc(O)cc3)nc1O)C(C(=O)O)=N2", "assigned_class": "MET"}
